SYSTEM: α1A (rat submaxillary gland) (Rattus norvegicus)
Construct: α1A (rat submaxillary gland); from tissue; host or cells: rat submaxillary gland
Sequence (P43140 whole entry): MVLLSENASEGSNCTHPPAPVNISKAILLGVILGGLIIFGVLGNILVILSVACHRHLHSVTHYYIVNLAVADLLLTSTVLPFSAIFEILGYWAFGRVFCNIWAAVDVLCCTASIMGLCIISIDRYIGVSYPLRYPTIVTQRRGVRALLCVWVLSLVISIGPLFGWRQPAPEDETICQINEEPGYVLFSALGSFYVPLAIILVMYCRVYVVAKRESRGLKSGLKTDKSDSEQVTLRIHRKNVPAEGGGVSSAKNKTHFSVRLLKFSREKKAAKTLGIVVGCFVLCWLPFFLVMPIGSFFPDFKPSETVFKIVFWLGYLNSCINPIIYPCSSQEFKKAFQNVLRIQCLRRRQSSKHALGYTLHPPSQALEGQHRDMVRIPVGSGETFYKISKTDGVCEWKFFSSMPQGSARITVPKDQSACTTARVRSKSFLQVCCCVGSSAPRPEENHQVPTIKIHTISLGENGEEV
EXPERIMENT NOTES: Radioligand binding with [3H]-prazosin, α1A
CONDITIONS: rat submaxillary gland, [3H]-prazosin
Structures can show the parent of a compound that is named as a salt.
Ki vs 300 nM: less than gives rule met; not less than gives rule not met.

• COc1ccc(S(=O)(=O)Nc2cccc3c2CCCC3c2cnc[nH]2)cc1 (stereo not drawn) = rule not met

Threshold test, Ki < 300 nM: O=S(=O)(CC(F)(F)F)Nc1cccc2c1CCCC2c1c[nH]cn1 (single isomer, unassigned; (+)) [Example 36]
rule met

Also CCS(=O)(=O)Nc1cccc(Cc2c[nH]cn2)c1C.O=C(O)/C=C\C(=O)O [Example 29, maleate] , if possible.
rule met

Also C=C(c1cccc(NS(=O)(=O)CC)c1)c1c[nH]cn1 , if possible.
rule not met

Also CCS(=O)(=O)Nc1cccc(C(C)c2c[nH]cn2)c1 (stereo not drawn) [Example 37, maleate] , if possible.
rule not met

Also O=S(=O)(CCCCl)Nc1cccc2c1CCCC2c1cnc[nH]1 (stereo not drawn) , if possible.
rule not met
